target: human GPR84 receptor (Homo sapiens); construct: host or cells: HEK293, transient transfection; experiment: Gαi biosensor BRET assay in HEK293 cells (antagonism of ZQ-16); format: cell-based; conditions: HEK293, single concentration 10 μM (designated F)
Listed here are compounds together with their documented inhibition at 10 µM.

Field: example entries. Status: answers known.
1. CC(C)Oc1cc(C#CC2CC2)cnc1-c1cn(C[C@H]2CCCCO2)nn1	> 75%
2. Cc1cc(C#CCN2CC(C)(C)C2)cnc1-c1nnnn1CC1OCC(C)(C)CO1	50 to 75%
3. Cc1cc(C#CC2CC2)ccc1-c1cn(CC2OCCCC2(C)C)nn1 (centres unmarked)	50 to 75%
4. Cc1cc(N2CCN(CC3CC4CCN3CC4)CC2)ccc1-c1cn(CC2OCC(C)(C)CO2)nn1 (centres unmarked)	≤ 25%

stdin: Identify the reported inhibition at 10 µM for the following entry. Cc1cc(N2CC3(CNC3)C2)ccc1-c1cn(CC2CCCCO2)nn1 (centres unmarked)
stdout: ≤ 25%

stdin: Note inhibition at 10 µM for the compound shown: CN(C)c1cc(N2CC3(COC3)C2)c(F)cc1-c1cn(CC2OCC(C)(C)CO2)nn1
stdout: > 75%

====

target: human GPR84 receptor (Homo sapiens, UniProt Q9NQS5); construct: host or cells: HEK293, transient transfection; assay: Gαi biosensor BRET assay in HEK293 cells (antagonism of ZQ-16); type: cell-based; conditions: HEK293, single concentration 2 μM (designated A)
Sequence (Q9NQS5 whole entry): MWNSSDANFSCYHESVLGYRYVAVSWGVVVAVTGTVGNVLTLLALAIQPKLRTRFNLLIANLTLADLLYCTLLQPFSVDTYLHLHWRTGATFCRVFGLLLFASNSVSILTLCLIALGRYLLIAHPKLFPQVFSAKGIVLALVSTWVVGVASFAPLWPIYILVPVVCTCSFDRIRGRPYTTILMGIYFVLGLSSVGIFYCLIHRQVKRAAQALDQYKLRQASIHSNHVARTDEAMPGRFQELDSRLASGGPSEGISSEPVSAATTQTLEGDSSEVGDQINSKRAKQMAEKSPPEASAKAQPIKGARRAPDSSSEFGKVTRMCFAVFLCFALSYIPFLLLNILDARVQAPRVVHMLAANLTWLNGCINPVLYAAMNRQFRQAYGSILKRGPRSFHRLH
EXPERIMENTAL READOUT: inhibition at 2 µM

The examples below pair each entry with its known result.
1. CC(C)Oc1cc(C#CCN2CC(C)(C)C2)cnc1-c1cn(C[C@H]2CCCCO2)nn1	50 to 75%
2. Cc1cccc(-c2cn(CC#Cc3cnc(-c4cn(CC5CCCCO5)nn4)c(C)c3)nn2)c1 (stereo not shown)	> 75%
3. COC(c1cn(CC2OCC(C)(C)CO2)nn1)c1cc(C#CC2CC2)c(F)cc1C (stereo not shown)	> 75%
4. CC1(C)COC(Cn2cc(-c3ccc(N4CC(C)(CO)C4)cc3CC(F)(F)F)nn2)OC1	> 75%
5. CC1(C)CN(c2ccc(-c3cn(C[C@H]4CCCCO4)nn3)c(OC3CC3)c2)C1	> 75%

stdin: State inhibition at 2 µM on human GPR84 receptor (Homo sapiens, UniProt Q9NQS5). Entry: CN(C)c1cc(N2CC(C)(CO)C2)ccc1-c1cn(CC2OCC3(CC3)CO2)nn1
stdout: > 75%

stdin: Provide inhibition at 2 µM, system human GPR84 receptor (Homo sapiens, UniProt Q9NQS5), entry Cc1ccc(C#CC2CC2)cc1Cc1cn(CC2CC(C)(C)CO2)nn1 (stereo not shown)
stdout: 50 to 75%

stdin: Fill in inhibition at 2 µM for CCc1ccc(C#CC2CC2)cc1Cc1cn(CC2CCCCO2)nn1 (stereo not shown) tested with human GPR84 receptor (Homo sapiens, UniProt Q9NQS5).
stdout: 25 to 50%

stdin: Quote human GPR84 receptor (Homo sapiens, UniProt Q9NQS5) inhibition at 2 µM for entry CCc1cc(C#CCNC)ccc1-c1cn(CC2OCC(C)(C)CO2)nn1 .
stdout: > 75%

stdin: // fetch inhibition at 2 µM for CN(C)c1cc(N2CC3(CCOCC3)C2)ccc1-c1cn(CC2OCC(C)(C)CO2)nn1 ; system: human GPR84 receptor (Homo sapiens, UniProt Q9NQS5)
stdout: > 75%

stdin: Provide inhibition at 2 µM, system human GPR84 receptor (Homo sapiens, UniProt Q9NQS5), entry CC1(C)COC(Cn2cc(-c3ncc(C#CC4CC4)cc3OC3CC3)nn2)OC1
stdout: > 75%

stdin: Fetch value of inhibition at 2 µM on human GPR84 receptor (Homo sapiens, UniProt Q9NQS5) for COC(c1cn(Cc2ncccn2)nn1)c1cc(C#CC2CC2)ccc1C (stereo not shown) .
stdout: > 75%

stdin: Give inhibition at 2 µM for CC1(C)COC(Cn2cc(-c3ncc(C#CC4CC4)cc3CO)nn2)OC1 tested on human GPR84 receptor (Homo sapiens, UniProt Q9NQS5).
stdout: ≤ 25%

Each recorded value in this set is attributed to patent US12617777B2.
